pKi: −log10 of the molar value.
Below: compounds with pKi recorded for Orexin receptor type 2 (Homo sapiens, UniProt O43614) in separate published works.
REPORTED_METRIC: pKi

{"COMPOUND": "Cc1cc(Br)ccc1NC(=O)N[C@H]1COC(C)(C)O[C@H]1c1ccccc1", "RELATION_OPERATOR": "<", "RECORDED_VALUE": 5.00}
{"COMPOUND": "CC1(C)OC[C@H](NC(=O)Nc2ccccc2I)[C@H](c2ccccc2)O1", "RELATION_OPERATOR": "<", "RECORDED_VALUE": 5.30}
{"COMPOUND": "Cc1ccc(NC(=O)N[C@H]2COC(C)(C)O[C@H]2c2ccccc2)c(C)c1", "RELATION_OPERATOR": "<", "RECORDED_VALUE": 5.00}
{"COMPOUND": "C[C@@H]1CC[C@@H](Oc2nccc3c2C(=O)OC3(C)C)CN1C(=O)c1ccccc1-n1nccn1", "RELATION_OPERATOR": "=", "RECORDED_VALUE": 8.66}
{"COMPOUND": "Cc1ccc(-n2nccn2)c(C(=O)N2CCN(c3ncc4ccccc4n3)CC[C@H]2C)c1", "RELATION_OPERATOR": "=", "RECORDED_VALUE": 9.44}
{"COMPOUND": "O=C(c1ccccc1-n1nccn1)N1CCC(F)(F)C(Oc2cccc(C(F)(F)F)n2)C1 (stereo unspecified)", "RELATION_OPERATOR": "=", "RECORDED_VALUE": 6.04}
{"COMPOUND": "CC1(C)OC[C@H](NC(=O)Nc2cccc(Br)c2)[C@H](c2ccccc2)O1", "RELATION_OPERATOR": "<", "RECORDED_VALUE": 5.00}
{"COMPOUND": "COc1ccc(CNC(=O)c2cc(-c3cc(C)cc(C)c3)cnc2-c2cccnc2)cc1OC", "RELATION_OPERATOR": "=", "RECORDED_VALUE": 9.15}
{"COMPOUND": "O=S(=O)(c1ccccc1)N1CCCC12CCN(c1nc3ccccc3o1)CC2", "RELATION_OPERATOR": "=", "RECORDED_VALUE": 7.80}
{"COMPOUND": "CC1CCC(Oc2cc(C(F)(F)F)nc3ccccc23)CN1C(=O)c1ccccc1-n1nccn1 (racemic)", "RELATION_OPERATOR": "=", "RECORDED_VALUE": 6.83}
{"COMPOUND": "Cc1ccc(-n2nccn2)c(C(=O)N2C[C@H](C#Cc3ccc(F)cn3)CC[C@H]2C)c1", "RELATION_OPERATOR": "=", "RECORDED_VALUE": 8.96}
